- Tested on: COLO320DM cells
- protocol-details: COLO320DM proliferation assay
- Format: cell-based, human
- cond: read-out: COLO320DM Proliferation Abs IC50
- Method: Various technologies can be utilized to assess technologies of the present disclosure. For example, in some embodiments, solubility, LogD, interactions with targets, etc. of various agents such as stapled peptides were assessed using technologies described in WO 2022/261257 (e.g., those in its Examples). In some embodiments, solubility, shake flask LogD, and binding to beta-catenin were assessed. […]
pIC50: −log10 of the molar value.

compound | experimental-system | pIC50
CC(=O)N1CCC[C@]12CC=CCCCC1(CCCC=CCCCOC(=O)N3CC[C@@]4(C3)NC(=O)[C@H](CCCCn3cc(nn3)C[C@@H](C(=O)N[C@@H](C)C(N)=O)NC(=O)[C@H](Cc3csc5ccccc35)NC(=O)[C@H](Cc3ccsc3)NC4=O)NC(=O)[C@H](Cc3ccccc3)NC(=O)[C@H](C)NC(=O)C(C)(C)NC(=O)[C@H](Cc3cccc(C(=O)O)c3)NC(=O)[C@H](CC(=O)O)NC1=O)NC(=O)[C@H](CC(C)(C)C)NC(=O)[C@H](CC(=O)O)NC2=O (single isomer, unassigned) [I-335] | COLO320DM cells | ≥ 5.00
CCCC[C@@H]1NC(=O)[C@H](CC(=O)O)NC(=O)[C@]2(CC=CCCCC3(CCCC=CCCCOC(=O)N4CC[C@@]5(C4)NC(=O)[C@H](CCCCNC(=O)CC[C@@H](C(=O)N[C@@H](C)C(N)=O)NC(=O)[C@H](Cc4csc6ccccc46)NC(=O)[C@H](Cc4ccsc4)NC5=O)NC(=O)[C@H](Cc4ccccc4)NC(=O)[C@H](C)NC(=O)C(C)(C)NC(=O)[C@H](Cc4cccc(C(=O)O)c4)NC(=O)[C@H](CC(=O)O)NC3=O)NC1=O)CCCN2C(C)=O (relative stereo) [I-245] | COLO320DM cells | ≥ 5.00
